- target.of.assay: T1, DVL3, Q92997
- T1 sequence (Q92997 244-331, limits assumed, looked up): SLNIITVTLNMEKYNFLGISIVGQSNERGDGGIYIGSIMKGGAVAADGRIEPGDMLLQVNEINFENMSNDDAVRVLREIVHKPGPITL
- protocol.description: holdup assay
- Design: key: below the threshold = too weak to quantify, mostly under pKd 3.1 to 4
- experimental.setup: plain residues with an end cap or a label only (N-terminal biotin on a linker: ado-ado)
experimental.readout: pKd

Take a look at these entries with their results.
[[record]]
binder = "RFQQRMQTHV [KIRREL1, Q96J84]"
observed = "below the threshold"

[[record]]
binder = "PTPDLPQTRV [KLHDC7A, Q5VTJ3]"
observed = "below the threshold"

[[record]]
binder = "REEPDHSTEV [CCRL2, O00421]"
observed = 3.48

[[record]]
binder = "SVTSERETNI [SLC16A7, O60669]"
observed = "below the threshold"

[[record]]
binder = "DPAESMESLV [PTPRG, P23470]"
observed = "below the threshold"

[[record]]
binder = "ILRKSTTTTV [PRR16, Q569H4]"
observed = "below the threshold"

[[record]]
binder = "NVYGIESVKI [GRIA2, P42262]"
observed = "below the threshold"


## Input # get_value(readout='pKd', item= STKRKLASAV [NCF1, P14598] )
## Output below the threshold

Every entry's value here was drawn from paper PMC9482650.
